Assay: yeast display, Sf9 membrane polyspecificity reagent, FACS + sequencing; frameworks hold sequencing errors
measurement_type: polyreactivity (PSR sort gate)

{"columns": ["seq_string", "test_result"],
 "data": [
  ["QVQLVESGGGLVQAGGSLRLSCAASGRILASYAMGWYRQAPGKECELVAAIRYRGSTSYADSVKGRFTISRDNAKNTVYLQMNSLKPEDTAVYYCAAKWHVRGRGARYRYDYDYWGQGTQVTVSS", "low polyreactivity"],
  ["QVQLVESVGVLVQAGARLRLSCAASGSIFRTNTMGSYRQAPVKERELVAAITAIGDSTYYGDSVKGRFTISRDNAKNTVYLQMNSLKPEDTAVYYCAAEKVSWGYHFYSSSDYWGQATQVTVSS", "low polyreactivity"],
  ["QVQLLESGGGLVQAGGSLRLSCAASGRTFVSYDMGWDRQAPGKEREVVAAITYSGGASTYYADSVKGRFTISRDYAKKTGYFQMNSLIPEDTAVYYCATDFSLSFELDYWGQGTQVTVSS", "low polyreactivity"],
  ["QVQLVESGGGLVQAVGSLRLSCAASGFTFERNAMGWYRQAPGKARELVATINGSSDSTYYADSVKGRFTISRDKAKNTVYLQMNSLKPEDTAVYYCNADSITEGNSRYSHFDYWGQGTQVTVSS", "low polyreactivity"],
  ["QVQLVESGVGLVQAGGSLRLSCAASGSTFYKYTMGWYRQAPGKESELVSAISRSGGRTYYADSVKGRFTISRDNAKNTVYLQMNSLKPEDTAVYYCAVVTPRYYGDTKYDYWGQGTQVTVSS", "high polyreactivity"],
  ["QVQLVESGGGLVQAGGSLRLSCAASGSTFVGYAMGWYRQAPGKEMEFVAAITRGGSTNYADSVKGRFTISRDNAKNTVYLQMNSLKPEDTAVYYCAARDRREGFIFDYWGQGTQVTVSS", "low polyreactivity"],
  ["QVQLVESGGGLVQAGGSLRLSCAASGSTIRSNAMGWYRQEPGKERELVAAISRTGGRTYYADSVKGRFTISRDNAKNTVYLQMNSLKPEDTAVYYCARPDKGLEYSENYYWGQGTQVTVSS", "high polyreactivity"],
  ["QVQLVESVGGVVQAGGSLRLSCAASGSIFRWNAMGWYRQARGKEWELVAVNTWRGGRTYYADSVKGRFTFSRDNAKKTVYLQMNSLNPEYTSFSYCAKGRLVTTLFGHYATCEYDSWGHGTQVTVSS", "high polyreactivity"],
  ["QVQLVESGGGLVQAGGSLRLSCAASGRTFGPYTMGGYIQAPGKEREFVAAIRSRGDTTYYADSVKGRFTISRDNAKNTVYLQMNSLKPEDTAVYYCAARSYFLVAGSRYDYWGQGTQVTVSS", "high polyreactivity"],
  ["QVQLVESGGGLVQAGGSLRLSCAASGFTFVGNAMGWYRQAPGKERELVATITSGGNTKYADSVKGRFTISRDNAKNTVYLQMNSLKPEDTAVYYCAAAKYNYRRFNSWGQGTQVTVSS", "low polyreactivity"],
  ["QVQLVESGGGLVQAGGSLRLSCAASGRTFYLYAMGWYRQAPGKERELVAAITRRGGSTYYADSVKGRFTISRDNAKNTVYLQMNSLKPEDTAVYYCAADRPGTGYSDYDYWGQGTQVTVSS", "high polyreactivity"],
  ["QVQLVESGGGLVQTGGSLRLSCAASGRIFKHYAMGWYTHAPGKERELVAAITNGGRTNYSDSVKGRFTISRDNAKNTVYLQMNSLKPEDTAVSYCARDRKIAYLSEGFDYWGQGTQVSVSS", "low polyreactivity"],
  ["QVQLVESGVGLVQAGGTLRLSCAATGSIFWDYAMGWYRHAPGKERQLVASITSGGSTYYADSVKGRFTISRDNAMNTVYLQMNSLKPEETAVYYCAADGHTRHWGQTGRGAMYYWGQGTQVTVSS", "low polyreactivity"]
]}
